Biological target: GST-RIPK1 (recombinant GST-RIPK1 kinase domain (residues 1-327)) (Homo sapiens, UniProt Q13546)
Construct: recombinant GST-RIPK1 kinase domain (residues 1-327) enzyme
Sequence (Q13546 1-327): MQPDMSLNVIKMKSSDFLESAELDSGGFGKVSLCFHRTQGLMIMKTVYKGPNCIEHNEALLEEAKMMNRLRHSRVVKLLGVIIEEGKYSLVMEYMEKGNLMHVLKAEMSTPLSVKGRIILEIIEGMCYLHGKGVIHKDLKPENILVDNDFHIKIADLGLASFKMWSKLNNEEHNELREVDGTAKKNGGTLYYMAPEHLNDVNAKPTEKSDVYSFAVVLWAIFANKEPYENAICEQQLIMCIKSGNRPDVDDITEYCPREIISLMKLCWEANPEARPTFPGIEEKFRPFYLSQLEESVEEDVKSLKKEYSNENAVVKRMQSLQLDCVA
Experiment: RIPK1-ADP-Glo enzymatic assay
Conditions: 25 nM GST-RIPK1, 300 μM ATP, 3 μM dephosphorylated-MBP; 30 minutes pre-incubation, 150 minutes reaction; ten-point titration
Protocol: The enzymatic activity of RIPK1 is measured using an assay derived from ADP-Glo kit (Promega™), which provides a luminescent-based ADP detection system. Specifically, the ADP generated by RIPK1 kinase is proportionally detected as luminescent signals in a homogenous fashion. In this context, the assessment of the inhibitory effect of small molecules (EC50) is measured by the effectiveness of the compounds to inhibit the ATP to ADP conversion by RIPK1. […]
What pIC50 was measured for each of the following?
pIC50 is defined as minus the log10 of a concentration measured in mol/L.

**Query** Please indicate pIC50 recorded for CC(C)C#Cc1cncc2c1O[C@H]1C[C@@H]2N(C(=O)C(C)(C)C(F)F)C1 [Compound 2-106]
**Result** 6.71

**Query** Please indicate pIC50 recorded for Cc1ncc2c(n1)O[C@H]1C[C@@H]2N(C(=O)C23CCC(F)(CC2)C3)C1 [Compound 3-4]
**Result** 5.91

**Query** Please indicate pIC50 recorded for N#Cc1cncc2c1O[C@H]1C[C@@H]2N(C(=O)C23CCCC2C3)C1 (single isomer, unassigned) [Compound 1-33]
**Result** 7.03

**Query** Please indicate pIC50 recorded for CC1(C(=O)N2C[C@@H]3C[C@H]2c2cncc(C#N)c2O3)CCCC1 [Compound 1-5]
**Result** 7.66

**Query** Please indicate pIC50 recorded for CC(C)(C(=O)N1C[C@@H]2C[C@H]1c1cncc(C#Cc3cnc(C4CC4)nc3)c1O2)C(F)F [Compound 2-80]
**Result** 7.62

**Query** Please indicate pIC50 recorded for CCC(C)(C#N)C(=O)N1C[C@@H]2C[C@H]1c1cncc(C#N)c1O2 (single isomer, unassigned) [Compound 1-112]
**Result** 6.60

**Query** Please indicate pIC50 recorded for CC(C)(C(=O)N1C[C@@H]2C[C@H]1c1cncc(C#Cc3ccnc(N)c3)c1O2)C(F)F [Compound 2-39]
**Result** 7.62
